# tested system: HLA-A*26:01
# assay method text: IEDB peptide-MHC binding, purified MHC/direct/fluorescence; filed as Kd, often an IC50 or EC50 that approximates it; bounds were set here for any values at or beyond the usual limits of such assays
# applied conditions: source organism: Camelpox virus M-96
observed property: Kd (nM)
Field: numeric (nM). Do not append units.

Param item = FVHTLLKTY ; retrieve measured Kd.
73.3

* * *

# tested system: HLA-B*27:20
# assay method text: IEDB peptide-MHC binding, purified MHC/competitive/fluorescence; filed as Kd, often an IC50 or EC50 that approximates it; bounds were set here for any values at or beyond the usual limits of such assays
# applied conditions: source organism: Mammarenavirus juninense
observed property: Kd (nM)
Field: numeric (nM). Do not append units.

Param item = KLMDVVYSI ; retrieve measured Kd.
17.9

* * *

# tested system: HLA-B*39:01
# assay method text: IEDB peptide-MHC binding, purified MHC/direct/fluorescence; filed as Kd, often an IC50 or EC50 that approximates it; bounds were set here for any values at or beyond the usual limits of such assays
# applied conditions: source organism: Burkholderia mallei ATCC 23344
observed property: Kd

Param item = NVMDPMHGA ; retrieve measured Kd.
≥ 20 µM

* * *

# tested system: HLA-B*44:02
# assay method text: IEDB peptide-MHC binding, purified MHC/competitive/fluorescence; filed as Kd, often an IC50 or EC50 that approximates it; bounds were set here for any values at or beyond the usual limits of such assays
# applied conditions: source organism: Burkholderia mallei SAVP1
pKd: −log10 of the molar value.
observed property: pKd

Param item = NVMDPMHGA ; retrieve measured pKd.
≤ 5.30

* * *

# tested system: HLA-B*40:02
# assay method text: IEDB peptide-MHC binding, purified MHC/competitive/radioactivity; filed as Kd, often an IC50 or EC50 that approximates it; bounds were set here for any values at or beyond the usual limits of such assays
# applied conditions: source organism: Lymphocytic choriomeningitis virus (strain Armstrong)
observed property: Kd (nM)
Field: numeric (nM). Do not append units.

Param item = SENDWFSCM ; retrieve measured Kd.
164

* * *

# tested system: HLA-B*58:01
# assay method text: IEDB peptide-MHC binding, purified MHC/direct/fluorescence; filed as Kd, often an IC50 or EC50 that approximates it; bounds were set here for any values at or beyond the usual limits of such assays
# applied conditions: source organism: Yersinia pestis Antiqua
observed property: Kd (nM)
Field: numeric (nM). Do not append units.

Param item = MANICWIYY ; retrieve measured Kd.
43.3

* * *

# tested system: HLA-B*15:01
# assay method text: IEDB peptide-MHC binding, purified MHC/direct/fluorescence; filed as Kd, often an IC50 or EC50 that approximates it; bounds were set here for any values at or beyond the usual limits of such assays
# applied conditions: source organism: Giardia lamblia ATCC 50803
Answer each item with its documented Kd.

Param item = DEKPKVMEG ; retrieve measured Kd.
≥ 20 µM

// repeat for RTDPVIDNI and report
≥ 20 µM

// repeat for YLDMVLAFL and report
≥ 20 µM

// repeat for KLRSNALSL and report
0.025 µM

// repeat for KVGVYKMHK and report
≥ 20 µM

* * *

# tested system: HLA-C*14:02
# assay method text: IEDB peptide-MHC binding, purified MHC/competitive/fluorescence; filed as Kd, often an IC50 or EC50 that approximates it; bounds were set here for any values at or beyond the usual limits of such assays
# applied conditions: source organism: Brucella abortus S19
observed property: pKd
Give only the number. pKd is defined as minus log10 of concentration in molar units.

Param item = YMRERLSDF ; retrieve measured pKd.
7.74
